Would you kindly list %Inh for each of these compounds?
Tested on: PIP5K2B
condition description: concentration: 1 μM, replicates: in singlicate; n = 1;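 note: KINOMEscan kinase panel screen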
Give bare numbers, in %.

See these solved cases before continuing.
INSERT INTO assay_data (structure, observed_measurement) VALUES
  ('COC(=O)Nc1nc2cc(Oc3ccc(NC(=O)Nc4cc(F)ccc4F)cc3)ccc2[nH]1.Cl', 14),
  ('Cc1ccc(C(=O)NCC(N)=O)cc1-n1c(C)cc(OCc2ccc(F)cc2F)c(Br)c1=O', 0),
  ('O=C1Cc2cc(Nc3nc(NCc4cccc(S(=O)(=O)C(F)(F)F)c4)ncc3C(F)(F)F)ccc2N1', 20);

Next:
input: Which measured %Inh belongs to "Cl.Oc1cccc(Nc2ccnc3cc(-c4ccncc4)ccc23)c1" , tested on PIP5K2B?
output: 9

* * *

Test system: BLK
condition description: concentration: 1 μM, replicates: in singlicate; n = 1
property measured: %Inh (%)
Answers are plain numbers, in %.

INSERT INTO assay_data (structure, measurement_units, observed_measurement) VALUES
  ('COc1cc2c(cc1OC[C@@H](O)CO)ncc1c3ccc(C#N)cc3[nH]c21', '%', 24);

Provide each entry's %Inh from the list below.
1. Cl.Oc1cccc(Nc2ccnc3cc(-c4ccncc4)ccc23)c1
2. O=C(NCCNc1ccnc(Nc2ccc(F)cc2)n1)Nc1ccccc1F
3. Cl.Nc1ncnc2occ(-c3ccc(NC(=O)Nc4cc(C(F)(F)F)ccc4F)cc3)c12
4. O=C(NCCCN1CCOCC1)c1cccc(Nc2nccc(Nc3ccc(Oc4ccccc4)cc3)n2)c1
5. Cc1c2ccc(N(C)c3ccnc(Nc4cccc(S(N)(=O)=O)c4)n3)cc2nn1Cc1ccccc1.Cl.Cl
6. Cc1nnc(-c2ccc(C)c(-c3ccc(C(=O)Nc4ccc(NS(C)(=O)=O)cc4)cc3)c2)o1

output:
99.1
6
44
95.4
82
14

input: Form field: reported %Inh of "CN1c2ccc(CNc3ccc(F)cc3)cc2-c2c(cnn2C)S1(=O)=O"
output: 0

* * *

System: MAP4K2
condition description: concentration: 1 μM, replicates: in singlicate; n = 1
Hi there, I'd appreciate the recorded %Inh for every entry that follows.
Answers are plain numbers, in %.

INSERT INTO measurements (molecule, property_measured, observed_measurement) VALUES
  ('Nc1nc(-c2ccc3c(N)n[nH]c3c2)cc(N2CCCC2)n1 [GSK2227430]', '%Inh', 0);

List reported %Inh for each of these molecules:
1. Fc1ccc(-c2nn3c(OCC(F)(F)F)cccc3c2-c2ccncc2)cc1 [GW514784]
2. O=C(Nc1n[nH]c2cc(-c3cccc(F)c3)ccc12)C1CC1 [SB-735464]
3. O=c1cc(N2CCOCC2)nc2n(Cc3cccc(F)c3)ccn12 [GSK2297430]
4. O=c1cc(N2CCOCC2)nc2n(Cc3cccc(Cl)c3Cl)c(C3CC3)nn12 [GSK2358994]
5. CN(C(=O)c1ccc(-c2cc(-c3c[nH]nc3-c3ccccn3)ccn2)cc1)C1CCOCC1 [GW810083]
6. COc1cc2ncn(-c3cc(OCc4sccc4Cl)c(C(N)=O)s3)c2cc1OC [GSK448459]
7. NS(=O)(=O)c1cccc(-c2ccc3ncc(N4CCOCC4)nc3c2)c1 [GSK1535721]
8. Cc1cccc(-c2nc(-c3ccc(S(C)(=O)=O)cc3)sc2-c2ccncc2)c1

output:
0
6
0
11
0
20
4
0
